- Test system: KRas wild type
- ASSAY_SUMMARY: Ras GTP Binding Domain Inhibition Assay (Ras Superfamily Assay)
- EXPERIMENTAL_CONDITIONS: at 20 μM, with SOS
QUANTITY_KIND: KRas wild type + SOS: % inh.

[
  {
    "MOLECULE": "CO[C@H]1CC[C@@H](Nc2nc(-c3nccn3C)nn3cc(-c4cccnc4)c(-c4ccccc4)c23)C1 (racemic)",
    "QUANTITY_KIND": "KRas wild type + SOS: % inh.",
    "ASSAY_RESULT": "A (A = 1-25% inhibition)"
  },
  {
    "MOLECULE": "CO[C@H]1C[C@H](Nc2nc(-c3nccn3C)nn3cc(-c4ccc(CN)cc4)c(-c4ccccc4)c23)C1.Cl",
    "QUANTITY_KIND": "KRas wild type + SOS: % inh.",
    "ASSAY_RESULT": "A (A = 1-25% inhibition)"
  }
]

###

- System: KRas Q61H mutant
- ASSAY_SUMMARY: Ras GTP Binding Domain Inhibition Assay (Ras Superfamily Assay)
- EXPERIMENTAL_CONDITIONS: 20 μM compound, without SOS
- Excerpt: Biological Example 3: Ras GTP Binding Domain Inhibition Assay The assays described in Example 3 are collectively referred to as the “Ras Superfamily Assay” throughout this application. […] The small GTPases proteins: KRas wild type. KRas Q61H mutant, KRas G12C mutant, KRas G12D mutants, Rac-1, and Rho-A were expressed as His-tagged proteins. In addition, the Guanosine nucleotide Exchange Factor (GEF) Sos protein (residues 556-1049) was expressed as a His-tagged protein. […]
QUANTITY_KIND: KRas Q61H mutant: % inh.

Some compounds with known KRas Q61H mutant: % inh. results, for comparison:
[
  {
    "COMPOUND": "COc1cccc(-c2cn3nc(-c4nccn4C)nc(O)c3c2C)c1Cl [Compound 15]",
    "SYSTEM_TESTED": "KRas Q61H mutant",
    "ASSAY_RESULT": "A (A = 1-25% inhibition)"
  },
  {
    "COMPOUND": "COc1cccc(Nc2nc(-c3nccn3C)nn3ccc(-c4ccccc4)c23)n1 [Compound 40]",
    "SYSTEM_TESTED": "KRas Q61H mutant",
    "ASSAY_RESULT": "0 (0 = 0% inhibition)"
  },
  {
    "COMPOUND": "Cc1ccn2nc(-c3nccn3C)nc(N)c12.O=C(O)C(F)(F)F [Compound 37]",
    "SYSTEM_TESTED": "KRas Q61H mutant",
    "ASSAY_RESULT": "0 (0 = 0% inhibition)"
  },
  {
    "COMPOUND": "COc1cccc(Nc2nc(-c3nccn3C)nn3ccc(C)c23)n1 [Compound 38]",
    "SYSTEM_TESTED": "KRas Q61H mutant",
    "ASSAY_RESULT": "0 (0 = 0% inhibition)"
  }
]

Field: KRas Q61H mutant: % inh.. Fill in for each record below.
1. Cc1c(-c2ccn(C(C)C)n2)cn2nc(-c3nccn3C)nc(Nc3cnccn3)c12 [Compound 62]
2. COC1CCCN(c2nc(-c3nccn3C)nn3cc(-c4ccn(C(C)C)n4)c(C)c23)C1 (racemic) [Compound 4]
3. COc1cccc(-c2cn3nc(-c4nccn4C)nc(N[C@H]4C[C@H](OC)C4)c3c2-c2ccn(C)n2)c1F [Compound 47]
4. COc1cccc(-c2cn3nc(-c4nccn4C)nc(N[C@@H]4CC[C@@H](OC)C4)c3c2-c2ccccc2)c1Cl.Cl (racemic) [Compound 34]
5. COc1cccc(-c2cn3nc(-c4nccn4C)nc(N[C@H]4C[C@H](OC)C4)c3c2-c2ccccc2)c1Cl [Compound 32]

Output:
A (A = 1-25% inhibition)
0 (0 = 0% inhibition)
A (A = 1-25% inhibition)
0 (0 = 0% inhibition)
A (A = 1-25% inhibition)

###

- Tested on: KRas wild type
- ASSAY_SUMMARY: Ras GTP Binding Domain Inhibition Assay (Ras Superfamily Assay)
- EXPERIMENTAL_CONDITIONS: 20 μM compound, with SOS
Assignment: determine reported KRas wild type + SOS: % inh. for the given compounds.

Worked examples follow.
[
  {
    "COMPOUND": "COC[C@@H]1CC[C@@H]1CNc1nc(-c2nccn2C)nn2cc(-c3ccn(C(C)C)n3)c(C)c12 (racemic) [Compound 3]",
    "ASSAY_RESULT": "0 (0 = 0% inhibition)"
  },
  {
    "COMPOUND": "COc1cc(-c2cn3nc(-c4nccn4C)nc(N[C@@H]4CC[C@@H](OC)C4)c3c2C)ccn1 (racemic) [Compound 163]",
    "ASSAY_RESULT": "0 (0 = 0% inhibition)"
  }
]

Below: the item to evaluate.
Noted for COc1cccc(Nc2nc(-c3nccn3C)nn3cc(-c4ccn(C(C)C)n4)c(C)c23)n1 [Compound 7] : its KRas wild type + SOS: % inh. reads 0 (0 = 0% inhibition)

###

- SYSTEM_TESTED: Rac-1 (Homo sapiens, UniProt P63000)
- Construct: made in house
- ASSAY_SUMMARY: Ras GTP Binding Domain Inhibition Assay (Ras Superfamily Assay)
- EXPERIMENTAL_CONDITIONS: read-out: Rac-1: % inh.
What inhibition at 20 µM was measured for each of the following?

[
  {
    "COMPOUND": "CO[C@H]1CC[C@@H](Nc2nc(-c3ccccn3)nn3cc(-c4ccn(C(C)C)n4)c(-c4ccccc4)c23)C1 (racemic)",
    "ASSAY_RESULT": "0%"
  },
  {
    "COMPOUND": "Cc1c(-c2ccn(C)n2)cn2nc(-c3nccn3C)nc(Nc3nccc(OCCN(C)C)n3)c12",
    "ASSAY_RESULT": "76 to 100%"
  },
  {
    "COMPOUND": "COc1ccnc(N(C)c2nc(-c3nccn3C)nn3cc(-c4ccn(C)n4)c(C)c23)c1",
    "ASSAY_RESULT": "26 to 49%"
  },
  {
    "COMPOUND": "Cc1c(-c2ccn(C)n2)cn2nc(-c3nccn3C)nc(Nc3ccc(-n4ccnc4C)cn3)c12",
    "ASSAY_RESULT": "76 to 100%"
  },
  {
    "COMPOUND": "COCC1CCN(c2nc(-c3ccccn3)nn3cc(-c4ccn(C(C)C)n4)c(-c4ccccc4)c23)C1 (racemic)",
    "ASSAY_RESULT": "1 to 25%"
  }
]

Please supply inhibition at 20 µM for each of the following items, keeping them in order.
1. CO[C@@H]1CC[C@@H](Nc2nc(-c3nccn3C)nn3cc(-c4cccnc4)c(C)c23)C1 (racemic)
2. Cc1c(-c2ccn(C(C)C)n2)cn2nc(-c3nccn3C)nc(Nc3cn(C(C)C)nn3)c12
3. Cc1c(-c2ccn(C)n2)cn2nc(-c3nccn3C)nc(N3CCc4cc(C(F)(F)F)cnc43)c12
4. COc1ccnc(Nc2nc(-c3nccn3C)nn3cc(-c4ccn(C)n4)c(C(=O)NCCN(C)C)c23)c1
5. COc1ccc(Nc2nc(-c3nccn3C)nn3cc(-c4ccn(C(C)C)n4)c(C)c23)nn1
6. COCCNc1nc(-c2nccn2C)nn2cc(-c3ccn(C(C)C)n3)c(C(C)C)c12

Output:
50 to 75%
76 to 100%
26 to 49%
76 to 100%
1 to 25%
0%

# batch: return inhibition at 20 µM for each of the 4 compounds below
1. COC1CCCN(c2nc(-c3nccn3C)nn3cc(-c4ccn(C(C)C)n4)c(C)c23)C1 (racemic)
2. COc1cc(-c2cn3nc(-c4nccn4C)nc(N[C@H]4C[C@@H](OC)C4)c3c2C)ccn1
3. Cc1c(-c2ccn(C)n2)cn2nc(-c3nccn3C)nc(Nc3cc(OC(F)F)ccn3)c12
4. COC1CCCN(c2nc(-c3ccccn3)nn3cc(-c4ccn(C(C)C)n4)c(C)c23)C1 (racemic)

Output:
1. 1 to 25%
2. 0%
3. 76 to 100%
4. 0%

###

- Tested on: Erk1/2 phosphorylation
- ASSAY_SUMMARY: Erk1/2 Phosphorylation Assay (western blot), Panc-1
- Format: cell-based, human
- EXPERIMENTAL_CONDITIONS: at 10 μM, * = activation
QUANTITY_KIND: % inh of Erk1/2 phosphorylation in Panc-1

Below are worked cases with known answers.
[
  {
    "MOLECULE": "COc1cccc(-c2cn3nc(-c4nccn4C)nc(O)c3c2C)c1Cl",
    "ASSAY_RESULT": "0 (0% inhibition)"
  },
  {
    "MOLECULE": "Cc1c(-c2ccn(C(C)C)n2)cn2nc(-c3nccn3C)nc(Nc3ccncn3)c12",
    "ASSAY_RESULT": "A (1-25% inhibition)"
  },
  {
    "MOLECULE": "COCCNc1nc(-c2nccn2C)nn2cc(-c3ccncc3)c(-c3ccccc3)c12",
    "ASSAY_RESULT": "D* (85-100% activation)"
  },
  {
    "MOLECULE": "CO[C@H]1CC[C@H](Nc2nc(-c3nccn3C)nn3cc(-c4ccn(C)n4)c(C(=O)NCC(F)(F)F)c23)C1 (racemic)",
    "ASSAY_RESULT": "A (1-25% inhibition)"
  },
  {
    "MOLECULE": "Cc1c(-c2ccn(C)n2)cn2nc(-c3nccn3C)nc(Nc3cc(C(F)(F)F)[nH]n3)c12",
    "ASSAY_RESULT": "A* (1-25% activation)"
  },
  {
    "MOLECULE": "CO[C@H]1C[C@H](Nc2nc(-c3nccn3C)nn3cc(-c4ccncc4)c(C)c23)C1",
    "ASSAY_RESULT": "A (1-25% inhibition)"
  },
  {
    "MOLECULE": "CCOc1cc(Nc2nc(-c3nccn3C)nn3cc(-c4ccn(C)n4)c(C)c23)n[nH]1",
    "ASSAY_RESULT": "A* (1-25% activation)"
  },
  {
    "MOLECULE": "Cc1c(-c2ccn(C)n2)cn2nc(-c3nccn3C)nc(Nc3cc(-c4ccncc4)[nH]n3)c12",
    "ASSAY_RESULT": "D (85-100% inhibition)"
  },
  {
    "MOLECULE": "COC[C@@H]1CC[C@@H]1CNc1nc(-c2ccccn2)nn2cc(-c3ccn(C(C)C)n3)c(C)c12 (racemic)",
    "ASSAY_RESULT": "0 (0% inhibition)"
  },
  {
    "MOLECULE": "Cc1c(-c2ccn(C3CC3)n2)cn2nc(-c3nccn3C)nc(Nc3cc(OCCCO)ccn3)c12",
    "ASSAY_RESULT": "D* (85-100% activation)"
  }
]

Here are 3 molecules. What values of % inh of Erk1/2 phosphorylation in Panc-1 were reported for them?
1. COCCCNc1nc(-c2nccn2C)nn2cc(-c3cccc(OC)c3Cl)c(-c3ccccc3)c12
2. Cc1c(-c2ccn(C(C)C)n2)cn2nc(-c3nccn3C)nc(Nc3ncc(C4CC4)o3)c12
3. COc1ccc(F)c(-c2cn3nc(-c4nccn4C)nc(N[C@H]4C[C@H](OC)C4)c3c2-c2ccccc2)c1F

Output:
1: D (85-100% inhibition); 2: D* (85-100% activation); 3: D (85-100% inhibition)
